Test system: OVCAR-4
procedure.text: NCI tumour cell line growth inhibition, 48 h
Calls of active or inactive are those of the source. Cut-off read from the data, not from the text of the source: active = GI50 up to about 1.1 µM and inactive = higher.
Log the outcome using a class from active, inactive

Previously resolved entries follow.
compound	answer.label
COC1CC(OS(=O)(=O)c2ccc([N+](=O)[O-])cc2)C(OC(=O)c2ccccc2)C(C)O1 (centres undefined)	inactive
C/C(NC(=O)c1ccccc1)=C(/C(=O)c1ccccc1)[C@@H]1OC(C)(C)O[C@@H]1[C@H]1COC(C)(C)O1	inactive
CC(C(=O)NCCNC(=O)CCC(=O)N(C)O)C(=O)NCCNC(=O)CCC(=O)N(C)O	inactive
O=C1NC2OCC(O)C(O1)C2O (centres undefined)	inactive
CC(C)=CCN1c2ccc(Cl)cc2NC(=O)CC1C (centres undefined)	inactive
COc1cc(C2c3cc4c(cc3OC(NNC(N)=O)C2C)OCO4)cc(OC)c1OC (centres undefined)	inactive
O=C1NC(=S)NC(=O)C1C(c1ccccc1[N+](=O)[O-])C1C(=O)NC(=S)NC1=O.c1ccncc1	inactive
C/C(=N\O)c1ccc2cc(Br)c3ccccc3c2c1	inactive

INPUT: Please let me know the test result on file for CCN(CC)CCCNc1c2c(Cl)cc(Cl)cc2nc2nc(O)nc(C)c12 .
OUTPUT: inactive

INPUT: Assay result, entry O=C1C(Cl)=C(N2CCSCC2)C(=O)c2c(O)ccc(O)c21 — outcome?
OUTPUT: active

INPUT: Please state the recorded outcome for this compound: C=CC(=O)C#CC#CC/C=C\CCCCCCC
OUTPUT: inactive

INPUT: Recorded test outcome, item CC1(c2nc3ccccc3[nH]2)CCC(C#N)C(C)(C)O1 (centres undefined)
OUTPUT: inactive

INPUT: Give the logged outcome of this assay for the following compound: CCOC(=O)CC1COc2ccc3c(c21)OCO3 (centres undefined)
OUTPUT: inactive

INPUT: What did the test return for COc1ccc(CSc2nc3ccccc3nc2-c2cccs2)cc1 ?
OUTPUT: inactive

INPUT: Please state the recorded outcome for this compound: O=C(N/N=C1\C(=O)Nc2ccc(Br)cc21)/C(O)=C/C(=O)c1ccc(Cl)cc1
OUTPUT: inactive

INPUT: Tell me the assay call for Nc1c([N+](=O)[O-])cc2c3c(cccc13)CC2 please.
OUTPUT: inactive
